Values compiled from ChEMBL document CHEMBL1149452.

- study target: 17-beta-hydroxysteroid dehydrogenase type 1 (Homo sapiens)
- Sequence (P14061 whole entry): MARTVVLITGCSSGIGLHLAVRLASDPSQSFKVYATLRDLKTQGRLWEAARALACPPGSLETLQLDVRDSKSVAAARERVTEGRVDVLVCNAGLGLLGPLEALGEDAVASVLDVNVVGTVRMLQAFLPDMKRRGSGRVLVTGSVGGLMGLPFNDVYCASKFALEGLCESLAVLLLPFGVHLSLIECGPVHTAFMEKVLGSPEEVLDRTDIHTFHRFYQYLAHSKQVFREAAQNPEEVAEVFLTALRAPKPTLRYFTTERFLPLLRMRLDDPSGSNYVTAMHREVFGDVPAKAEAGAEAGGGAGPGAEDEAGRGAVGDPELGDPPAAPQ
- assay protocol: Inhibition of 17-beta HSD1 in T47D cells
pIC50: −log10 of the molar value.
Returns satisfied if the recorded pIC50 is greater than or equal to 6, and not satisfied otherwise.

Here's what some known entries look like.
[[record]]
molecule = "C[C@]12CC[C@@H]3c4ccc(O)cc4CC[C@H]3[C@@H]1C/C(=C\\c1ccncc1)[C@@H]2O"
study_target = "17-beta-hydroxysteroid dehydrogenase type 1 (Homo sapiens)"
class_name = "not satisfied"

[[record]]
molecule = "CCOC[C@H]1C[C@H]2[C@@H]3CCc4cc(O)ccc4[C@H]3CC[C@]2(C)C1=O"
study_target = "17-beta-hydroxysteroid dehydrogenase type 1 (Homo sapiens)"
class_name = "satisfied"

[[record]]
molecule = "CCOC(=O)CC1C[C@H]2[C@@H]3CCc4cc(O)ccc4[C@H]3CC[C@]2(C)C1=O (stereo not given in full)"
study_target = "17-beta-hydroxysteroid dehydrogenase type 1 (Homo sapiens)"
class_name = "satisfied"


Then there is this molecule:
Decide: is the reported value of pIC50 for `C[C@]12CC[C@@H]3c4ccc(O)cc4/C(=N\O)C[C@H]3[C@@H]1CC/C2=N\O` equal to or greater than 6? not satisfied
